molecular target: human CD33 T222A (human, UniProt P20138 18-364); experiment: alanine scan, flow cytometry, HEK293-T;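 further: antibody binding to each alanine-substituted CD33 mutant expressed transiently in HEK293-T, read as fluorescence minus background, mean of duplicates, relative to wild-type CD33 set as 100%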
Sequence (P20138 18-364 T222A limits assumed): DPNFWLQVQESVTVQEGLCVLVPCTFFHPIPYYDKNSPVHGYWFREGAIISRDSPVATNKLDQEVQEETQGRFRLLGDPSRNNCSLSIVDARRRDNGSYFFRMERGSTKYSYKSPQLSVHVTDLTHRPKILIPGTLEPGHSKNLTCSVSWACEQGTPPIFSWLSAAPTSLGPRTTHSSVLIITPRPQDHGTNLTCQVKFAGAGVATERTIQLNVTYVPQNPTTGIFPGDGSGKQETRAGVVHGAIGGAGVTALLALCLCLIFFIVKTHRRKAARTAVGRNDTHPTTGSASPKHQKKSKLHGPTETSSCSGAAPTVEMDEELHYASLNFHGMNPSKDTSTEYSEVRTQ
Quantity Measured: Mean % WT Binding (%)
Record the value in %, omitting the unit from your answer.

Guide cases for Mean % WT Binding, answers given:
Refmab #2 (antibody, V domains shown, In the alanine scan antibodies were used as IgG or Fab) VH: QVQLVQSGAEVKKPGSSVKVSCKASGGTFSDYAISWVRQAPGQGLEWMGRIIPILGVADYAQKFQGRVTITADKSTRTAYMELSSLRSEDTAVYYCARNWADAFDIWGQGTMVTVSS VL: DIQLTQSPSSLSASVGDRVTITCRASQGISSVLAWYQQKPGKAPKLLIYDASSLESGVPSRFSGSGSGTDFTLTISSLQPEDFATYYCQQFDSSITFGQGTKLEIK	121
Refmab #1 (antibody, V domains shown, In the alanine scan antibodies were used as IgG or Fab; also called hP67.6) VH: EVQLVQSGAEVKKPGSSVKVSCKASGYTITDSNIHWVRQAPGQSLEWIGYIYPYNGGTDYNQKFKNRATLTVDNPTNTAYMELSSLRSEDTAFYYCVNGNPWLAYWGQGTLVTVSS VL: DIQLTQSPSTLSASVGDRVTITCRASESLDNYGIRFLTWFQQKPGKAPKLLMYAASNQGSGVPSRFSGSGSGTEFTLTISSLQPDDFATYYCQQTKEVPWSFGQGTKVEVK	88.7
Refmab #3 (antibody, V domains shown, In the alanine scan antibodies were used as IgG or Fab) VH: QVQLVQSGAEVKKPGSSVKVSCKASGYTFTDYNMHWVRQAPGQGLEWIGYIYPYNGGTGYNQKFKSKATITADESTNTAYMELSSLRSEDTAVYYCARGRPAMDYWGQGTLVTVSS VL: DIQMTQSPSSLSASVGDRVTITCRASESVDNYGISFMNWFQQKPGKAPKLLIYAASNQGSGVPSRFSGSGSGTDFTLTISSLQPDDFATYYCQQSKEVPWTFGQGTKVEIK	117

Please supply the value of reported Mean % WT Binding for the item Refmab #4 (antibody, V domains shown, In the alanine scan antibodies were used as IgG or Fab) VH: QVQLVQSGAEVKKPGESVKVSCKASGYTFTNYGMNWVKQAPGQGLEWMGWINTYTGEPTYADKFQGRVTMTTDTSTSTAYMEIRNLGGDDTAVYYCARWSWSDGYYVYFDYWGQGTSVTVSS VL: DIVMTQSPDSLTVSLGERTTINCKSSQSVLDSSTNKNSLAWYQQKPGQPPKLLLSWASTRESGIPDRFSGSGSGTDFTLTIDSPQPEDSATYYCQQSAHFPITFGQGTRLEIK
109

The reported numbers originate from patent US20260242735A1.
